system: Shigella flexneri; assay: Antibacterial activity against Shigella flexneri MTCC 1457 at 1 mg/disc after 24 hrs by disc diffusion method; assay type: functional
measurement.kind: inhibition zone (IZ)

Exercise: May I ask what inhibition zone (IZ) has been recorded for Cc1ccc2c(c1)[C@]1(C(=O)N2)N(C)C[C@](C#N)(C(=O)c2c[nH]c3ccccc23)[C@]12C(=O)Nc1ccccc12 ?
Key: 11 mm

Exercise: What measured inhibition zone (IZ) goes with CN1C[C@](C#N)(C(=O)c2c[nH]c3ccccc23)[C@]2(C(=O)Nc3ccccc32)[C@@]12C(=O)Nc1ccc(Cl)cc12 ?
Key: 11 mm

Exercise: Dear colleague, I am looking for the recorded inhibition zone (IZ) of the following compound: CN1C(=O)[C@@]2(c3ccccc31)N(C)C[C@](C#N)(C(=O)c1c[nH]c3ccccc13)[C@]21C(=O)Nc2ccccc21
Key: 12 mm

Exercise: Look at this compound and give its reported inhibition zone (IZ). C=CCN1C(=O)[C@@]2(c3ccccc31)N(C)C[C@](C#N)(C(=O)c1c[nH]c3ccccc13)[C@]21C(=O)Nc2ccccc21
Key: 9 mm

Exercise: Please look up its inhibition zone (IZ): CN1C(=O)[C@@]2(c3cc(Br)ccc31)N(C)C[C@](C#N)(C(=O)c1c[nH]c3ccccc13)[C@]21C(=O)Nc2ccccc21
Key: 11 mm

Exercise: Suppose we examine the compound CN1C[C@](C#N)(C(=O)c2c[nH]c3ccccc23)[C@]2(C(=O)Nc3ccccc32)[C@@]12C(=O)Nc1ccccc12 ; what inhibition zone (IZ) value has been reported?
Key: 8 mm

Exercise: Can you look up the measured inhibition zone (IZ) of CN1C(=O)[C@@]2(c3cc(F)ccc31)N(C)C[C@](C#N)(C(=O)c1c[nH]c3ccccc13)[C@]21C(=O)Nc2ccccc21 for me?
Key: 9 mm

Exercise: Requested read-out: inhibition zone (IZ). Entry: CCCCCCN1C(=O)[C@@]2(c3ccccc31)N(C)C[C@](C#N)(C(=O)c1c[nH]c3ccccc13)[C@]21C(=O)Nc2ccccc21
Key: 10 mm

Exercise: So what's the measured inhibition zone (IZ) for this one? CCCCN1C(=O)[C@@]2(c3ccccc31)N(C)C[C@](C#N)(C(=O)c1c[nH]c3ccccc13)[C@]21C(=O)Nc2ccccc21
Key: 9 mm

Exercise: Need inhibition zone (IZ) of CN1C[C@](C#N)(C(=O)c2c[nH]c3ccccc23)[C@]2(C(=O)Nc3ccccc32)C12C(=O)c1cccc3cccc2c13 (stereo not given in full) , thanks.
Key: 9 mm

Exercise: State the recorded inhibition zone (IZ) for this entry: CN1C[C@](C#N)(C(=O)c2c[nH]c3ccccc23)[C@]2(C(=O)Nc3ccccc32)[C@@]12C(=O)Nc1ccc(Br)cc12
Key: 10 mm

Exercise: Fill blank: measured inhibition zone (IZ) of the compound CN[C@@H]1[C@H](O[C@H]2[C@H](O[C@H]3[C@H](O)[C@@H](O)[C@H](N=C(N)N)[C@@H](O)[C@@H]3N=C(N)N)O[C@@H](C)[C@]2(O)C=O)O[C@@H](CO)[C@H](O)[C@H]1O [STREPTOMYCIN] is ____.
Key: 30 mm

Exercise: Please report the recorded inhibition zone (IZ) for CN1C[C@](C#N)(C(=O)c2c[nH]c3ccccc23)[C@]2(C(=O)Nc3ccccc32)[C@@]12C(=O)N(Cc1ccccc1)c1ccccc12 .
Key: 7 mm

Exercise: Given the entry CN1C[C@](C#N)(C(=O)c2c[nH]c3ccccc23)[C@]2(C(=O)Nc3ccccc32)[C@@]12C(=O)Nc1ccc(F)cc12 , report its measured inhibition zone (IZ).
Key: 9 mm

Exercise: Which inhibition zone (IZ) is listed for CN1C[C@](C#N)(C(=O)c2c[nH]c3ccccc23)[C@]2(C(=O)Nc3ccccc32)[C@@]12C(=O)Nc1ccc(I)cc12 ?
Key: 8 mm

Exercise: Look at this compound and give its reported inhibition zone (IZ). CCN1C(=O)[C@@]2(c3ccccc31)N(C)C[C@](C#N)(C(=O)c1c[nH]c3ccccc13)[C@]21C(=O)Nc2ccccc21
Key: 9 mm

Exercise: Form field: reported inhibition zone (IZ) of CN1C(=O)[C@@]2(c3cc(I)ccc31)N(C)C[C@](C#N)(C(=O)c1c[nH]c3ccccc13)[C@]21C(=O)Nc2ccccc21
Key: 10 mm

Exercise: Reported inhibition zone (IZ) for Cc1ccc2c(c1)[C@]1(C(=O)N2C)N(C)C[C@](C#N)(C(=O)c2c[nH]c3ccccc23)[C@]12C(=O)Nc1ccccc12 : what is it?
Key: 11 mm

Exercise: Please report the recorded inhibition zone (IZ) for CN1C(=O)[C@@]2(c3cc(Cl)ccc31)N(C)C[C@](C#N)(C(=O)c1c[nH]c3ccccc13)[C@]21C(=O)Nc2ccccc21 .
Key: 9 mm

Exercise: // lookup inhibition zone (IZ) for C#CCN1C(=O)[C@@]2(c3ccccc31)N(C)C[C@](C#N)(C(=O)c1c[nH]c3ccccc13)[C@]21C(=O)Nc2ccccc21
Key: 8 mm
